testedSystem: F-ATP synthase of inverted membrane vesicles (IMV) of M. smegmatis
Sequence (A0R203 whole entry): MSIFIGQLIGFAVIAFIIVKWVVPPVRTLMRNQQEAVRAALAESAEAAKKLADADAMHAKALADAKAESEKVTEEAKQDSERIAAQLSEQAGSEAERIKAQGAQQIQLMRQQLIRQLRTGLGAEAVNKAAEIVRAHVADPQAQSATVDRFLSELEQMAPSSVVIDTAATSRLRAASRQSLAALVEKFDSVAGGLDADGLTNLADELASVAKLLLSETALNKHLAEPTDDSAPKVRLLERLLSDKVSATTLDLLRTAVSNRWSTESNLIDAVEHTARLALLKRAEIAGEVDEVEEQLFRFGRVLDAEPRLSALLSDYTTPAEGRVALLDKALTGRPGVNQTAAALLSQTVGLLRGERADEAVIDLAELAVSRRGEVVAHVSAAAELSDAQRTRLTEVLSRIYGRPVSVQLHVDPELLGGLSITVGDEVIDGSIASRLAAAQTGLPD
Sequence (A0R1Z9 whole entry, further chain): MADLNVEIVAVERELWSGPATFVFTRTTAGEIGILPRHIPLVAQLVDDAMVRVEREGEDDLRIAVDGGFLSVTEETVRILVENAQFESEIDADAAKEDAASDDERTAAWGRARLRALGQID
Sequence (A0R200 whole entry, further chain): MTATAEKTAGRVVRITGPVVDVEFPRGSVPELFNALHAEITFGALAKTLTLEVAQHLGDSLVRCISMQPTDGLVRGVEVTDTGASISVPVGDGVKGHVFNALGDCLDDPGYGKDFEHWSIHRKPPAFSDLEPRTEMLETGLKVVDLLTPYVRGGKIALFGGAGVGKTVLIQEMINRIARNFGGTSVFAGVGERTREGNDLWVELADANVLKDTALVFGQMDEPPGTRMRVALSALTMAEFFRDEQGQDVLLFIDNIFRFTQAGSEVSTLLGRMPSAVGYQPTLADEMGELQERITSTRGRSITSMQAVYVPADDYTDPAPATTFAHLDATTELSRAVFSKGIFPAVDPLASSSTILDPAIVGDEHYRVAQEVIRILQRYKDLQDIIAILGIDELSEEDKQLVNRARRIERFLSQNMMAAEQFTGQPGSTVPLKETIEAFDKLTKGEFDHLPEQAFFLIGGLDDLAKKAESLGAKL
Sequence (A0R201 whole entry, further chain): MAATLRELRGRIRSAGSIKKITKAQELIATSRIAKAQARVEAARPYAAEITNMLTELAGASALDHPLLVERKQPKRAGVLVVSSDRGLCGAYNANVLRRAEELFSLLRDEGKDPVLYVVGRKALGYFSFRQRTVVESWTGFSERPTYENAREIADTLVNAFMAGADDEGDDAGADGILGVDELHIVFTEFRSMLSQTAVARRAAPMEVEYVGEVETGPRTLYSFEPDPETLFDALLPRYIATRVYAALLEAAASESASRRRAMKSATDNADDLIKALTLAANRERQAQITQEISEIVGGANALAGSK
Sequence (A0R202 whole entry, further chain): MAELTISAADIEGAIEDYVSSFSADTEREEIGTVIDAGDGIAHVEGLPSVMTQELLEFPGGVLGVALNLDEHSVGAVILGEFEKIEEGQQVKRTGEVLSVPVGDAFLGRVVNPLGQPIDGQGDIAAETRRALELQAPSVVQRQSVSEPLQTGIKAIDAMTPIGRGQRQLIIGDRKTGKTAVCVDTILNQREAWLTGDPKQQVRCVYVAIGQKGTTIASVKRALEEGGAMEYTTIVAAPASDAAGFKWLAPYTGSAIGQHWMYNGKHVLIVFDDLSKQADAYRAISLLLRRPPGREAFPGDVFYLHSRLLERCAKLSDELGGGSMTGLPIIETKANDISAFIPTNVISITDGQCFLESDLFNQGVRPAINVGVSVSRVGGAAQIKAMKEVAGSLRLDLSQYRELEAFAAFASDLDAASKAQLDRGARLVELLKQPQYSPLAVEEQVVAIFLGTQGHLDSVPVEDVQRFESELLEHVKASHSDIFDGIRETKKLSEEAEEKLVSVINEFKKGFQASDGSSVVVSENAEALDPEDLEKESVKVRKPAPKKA
assayMethodText: ATP synthesis assay with inverted membrane vesicles
runParameters: read-out: IC50 [μM], effect on ATP synthesis, IMVs of M. smegmatis
measurementLabel: IC50 (µM)
Expressed in µM, but write only the number.

Please review the following examples before continuing.
structureSmiles | IC50, µM
CCNc1cc(C)nc(Nc2ccc(NC(=O)c3cccc(O)c3)cc2)n1 | 1.16
CCNc1nc(Nc2ccc(NC(=O)c3ccccc3)cc2)ncc1C | 0.9
Cc1cc(NC(C)C)nc(Nc2ccc(NC(=O)c3cccc(Br)c3)cc2)n1 | 2.69
CCNc1cc(C)nc(Nc2ccc(NC(=O)c3ccccc3)cc2)n1 | 1.65

Turning to the following compound.
Tell me the measured IC50 of CCNc1cc(C)nc(Nc2ccc(NC(=O)c3ccc(OC)cc3)cc2)n1 , please.
0.69

* * *

List of IC50 values.
testedSystem: F-ATP synthase of inverted membrane vesicles (IMV) of M. smegmatis
assayMethodText: ATP synthesis assay with inverted membrane vesicles
runParameters: read-out: IC50 [μM], effect on ATP synthesis, IMVs of M. smegmatis
Expressed in µM, but write only the number.

Please review the following examples before continuing.
structureSmiles | testedSystem | unitsSymbol | IC50
CCNc1nc(Nc2ccc(NC(=O)c3cccc(F)c3)cc2)ncc1C | F-ATP synthase of inverted membrane vesicles (IMV) of M. smegmatis | µM | 0.92
CCNc1cc(C)nc(Nc2ccc(NC(=O)c3cccc(F)c3)cc2)n1 | F-ATP synthase of inverted membrane vesicles (IMV) of M. smegmatis | µM | 0.26
CCNc1nc(C)cc(Nc2ccc(NC(=O)c3cccc(Br)c3)cc2)n1 | F-ATP synthase of inverted membrane vesicles (IMV) of M. smegmatis | µM | 0.38
CNc1cc(C)nc(Nc2ccc(NC(=O)c3cccc(Br)c3)cc2)n1 | F-ATP synthase of inverted membrane vesicles (IMV) of M. smegmatis | µM | 0.39
CCNc1ccnc(Nc2ccc(NC(=O)c3cccc(Br)c3)cc2)n1 | F-ATP synthase of inverted membrane vesicles (IMV) of M. smegmatis | µM | 1.03
CCNc1nc(Nc2ccc(NC(=O)c3cccc(Br)c3)cc2)ncc1C | F-ATP synthase of inverted membrane vesicles (IMV) of M. smegmatis | µM | 0.62
CCOC(=O)CNc1cc(C)nc(Nc2ccc(NC(=O)c3cccc(Br)c3)cc2)n1 | F-ATP synthase of inverted membrane vesicles (IMV) of M. smegmatis | µM | 2.01
Cc1cc(NCCO)nc(Nc2ccc(NC(=O)c3cccc(Br)c3)cc2)n1 | F-ATP synthase of inverted membrane vesicles (IMV) of M. smegmatis | µM | 0.42

Turning to the following compound.
Tell me the measured IC50 of CCNc1cc(C)nc(Nc2ccc(NC(=O)c3ccc(C)cc3)cc2)n1 , please.
0.39
